B1: TRAF3IP2 (parent)
chain: KEHVPTWLQNTHVYSWPKNKKNIL

# Variants of: B1
# assay-overview: protein stability index of a GFP-peptide fusion (GPS, HEK-293T) (PSI 1-6); higher = more stable;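 note: lentivirally expressed fusions sorted by FACS into six bins by GFP to DsRed ratio, PSI derived from sequencing read proportions per bin multiplied by bin number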
# particulars: c terminus: a fixed tail appended
The entries below are paired with their reported protein stability index.
experimental-readout: protein stability index

| variant-key | endpoint-result |
| --- | --- |
| H3N | 3.17 |
| T11M | 2.91 |
| L8V | 2.04 |
| P17I | 2.1 |
| T11P | 2.67 |
| P17C | 2.36 |
| N22C | 1.71 |
| P5E | 2.58 |
| H12D | 2.75 |
| Y14H | 3.46 |
| Y14T | 3 |
| I23M | 2.91 |
| K18W | 1.91 |
| K21E | 2.68 |
| W7K | 3.34 |
| L8G | 3.21 |
| H3G | 3.19 |
| P17H | 2.21 |
| Y14I | 3.71 |
| K18I | 2.05 |
| N10I | 1.79 |
| W16D | 3.53 |
| S15G | 2.99 |
| N10S | 2.66 |
| T6G | 2.81 |
| H3P | 3.67 |
| Y14C | 2.63 |
| I23P | 2.54 |
| K18T | 2.52 |
| Y14L | 2.29 |
| W7N | 3.63 |
| T11A | 2.67 |
| L24I | 2.67 |
| V13H | 3.78 |
| K18G | 2.53 |
| S15C | 2.15 |
| E2R | 3.4 |
| K18R | 3.38 |
| P5L | 1.73 |
| L24C | 2.69 |
| N10F | 2.09 |
| E2V | 2.15 |
| H12C | 2.46 |
| L24G | 3.93 |
| L24Y | 2.51 |
| N19I | 2.08 |

Hey, just so you know, these numbers are from the supplement of paper PMC10567573.
